Molecular target: Solute carrier family 15 member 1 (Homo sapiens)
Sequence (P46059 whole entry): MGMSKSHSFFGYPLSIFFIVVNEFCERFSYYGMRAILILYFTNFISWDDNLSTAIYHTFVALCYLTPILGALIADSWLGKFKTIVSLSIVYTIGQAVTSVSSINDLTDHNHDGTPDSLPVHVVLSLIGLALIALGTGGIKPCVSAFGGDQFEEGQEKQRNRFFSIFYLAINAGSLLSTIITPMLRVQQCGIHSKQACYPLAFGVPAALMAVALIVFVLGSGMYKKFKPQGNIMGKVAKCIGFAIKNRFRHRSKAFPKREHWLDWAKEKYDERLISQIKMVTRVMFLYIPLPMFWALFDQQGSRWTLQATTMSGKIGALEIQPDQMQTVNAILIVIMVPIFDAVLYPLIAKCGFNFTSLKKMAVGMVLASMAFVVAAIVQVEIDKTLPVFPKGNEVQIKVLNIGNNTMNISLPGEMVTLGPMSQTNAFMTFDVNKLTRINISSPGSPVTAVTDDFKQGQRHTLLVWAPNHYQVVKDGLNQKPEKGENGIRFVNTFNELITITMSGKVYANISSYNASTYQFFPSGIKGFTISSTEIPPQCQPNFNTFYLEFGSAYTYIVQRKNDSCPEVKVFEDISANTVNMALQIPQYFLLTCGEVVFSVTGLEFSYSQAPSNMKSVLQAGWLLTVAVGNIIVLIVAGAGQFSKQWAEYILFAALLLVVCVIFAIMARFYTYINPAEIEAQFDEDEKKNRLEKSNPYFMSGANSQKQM
Experiment: Binding affinity against membrane transport protein PEPT1 in human Caco-2 cells
Assay type: cell-based
Non-standard residues stand in square brackets, D forms with d. Residues, ends and D or L forms follow the SMILES beside them. Bip = N[C@@H](Cc1ccc(-c2ccccc2)cc1)C(=O)O
readout: pKi
# pKi is unitless: minus log10 of the molar concentration; print number only

| compound | reported.measurement |
| --- | --- |
| C[C@H](N)C(=O)N[C@@H](C)C(=O)O (stereo in doubt; 47) | 2.68 |

Lookup: Quick check: pKi of C[C@@H](NC(=O)[C@@H](N)Cc1ccc(O)cc1)C(=O)NCC(=O)O (H-Tyr-[dA]-Gly-OH) ?
Found: 1.85

Lookup: # query: pKi of entry CC(C)C[C@H](N)C(=O)N1CCC[C@H]1C(=O)N[C@@H](CCCN=C(N)N)C(=O)O (H-Leu-Pro-Arg-OH)
Found: 4.00

Lookup: # query: pKi of entry C[C@H](NC(=O)[C@@H](N)Cc1ccc(-c2ccccc2)cc1)C(=O)O (H-[Bip]-Ala-OH)
Found: 5.00

Lookup: pKi for C[C@H](NC(=O)[C@H](C)NOC(=O)[C@@H](C)N)C(=O)O ?
Found: 2.10

Lookup: Sample [N-]=[N+]=N[C@H](C(=O)NC1C(=O)N2C(C(=O)O)=CCSC12)c1ccccc1 (stereo partly drawn) — what was its pKi?
Found: 1.82

* * *

Target: Solute carrier family 15 member 1 (Homo sapiens, UniProt P46059)
Experiment: Binding affinity against membrane transport protein PEPT1 in human Caco-2 cells
Format: cell-based
Settings: caco-2
readout: Ki (mM)
Record the value in mM, omitting the unit from your answer.

| compound | readout | unit.of.measure | reported.measurement |
| --- | --- | --- | --- |
| O=C(O)C[C@H](NC(=O)[C@@H]1CCCN1)C(=O)O (stereo in doubt; 121) | Ki | mM | 9.8 |

Lookup: Consider the compound CC(C)[C@H](N)C(=O)N1CCC[C@H]1C(=O)N1CCC[C@@H]1C(=O)O and give its measured Ki.
Found: 4.3

* * *

pKi values, listed per item
Target: Solute carrier family 15 member 1 (Homo sapiens)
Test: Binding affinity against membrane transport protein PEPT1 in human Caco-2 cells
Format: cell-based
Residues, ends and D or L forms follow the SMILES beside them.
Scale: pKi equals -log10([C]), with [C] in mol/L.

| molecule | pKi |
| --- | --- |
| N[C@@H](Cc1c[nH]c2ccccc12)C(=O)N[C@@H](Cc1c[nH]c2ccccc12)C(=O)N[C@@H](Cc1c[nH]c2ccccc12)C(=O)O (H-Trp-Trp-Trp-OH) | 3.77 |
| C[C@H](N)C(=O)N[C@@H](C)C(=O)N[C@@H](C)C(=O)O | 3.74 |

Here is another molecule to look at.
Lookup: Which pKi value belongs to CC(C)C[C@H](N)C(=O)NCC(=O)NCC(=O)O (H-Leu-Gly-Gly-OH) ?
Found: 3.41

* * *

Target: Solute carrier family 15 member 1 (Homo sapiens, UniProt P46059)
Test: Binding affinity against membrane transport protein PEPT1 in human Caco-2 cells
Type: cell-based
Residues, ends and D or L forms follow the SMILES beside them.
readout: Ki (µM)
The reply should be a number in µM, with the unit left off.

Some solved cases for reference:
| compound | Ki (µM) |
| --- | --- |
| CC[C@H](C)[C@H](N)C(=O)N[C@H](C(=O)N[C@@H](Cc1ccc(O)cc1)C(=O)O)C(C)C (H-Ile-Val-Tyr-OH) | 200 |
| C[C@H](NC(=O)[C@H](Cc1ccccc1)NCc1ccccc1)C(=O)O | 20 |
| N=C(N)NCCC[C@H](NC(=O)[C@@H]1CCCN1)C(=O)O (H-Pro-Arg-OH) | 2500 |

Lookup: Fill in the blank: the reported Ki of C[C@H](N)C(=O)N[C@@H](CCCCN)C(=O)O is ____.
Found: 210

Lookup: # lookup: Ki of NCCCC[C@H](NC(=O)[C@@H](N)CC(=O)O)C(=O)O (H-Asp-Lys-OH)
Found: 860

Lookup: Quick one: Ki for O=C(O)CNC(=O)CNC(=O)[C@@H]1CCCN1 (H-Pro-Gly-Gly-OH) ?
Found: 16000

Lookup: Fill blank: measured Ki of the compound Cc1onc(-c2c(F)cccc2Cl)c1C(=O)N[C@@H]1C(=O)N2[C@@H]1SC(C)(C)[C@@H]2C(=O)O [FLOXACILLIN] is ____.
Found: 3200

* * *

Target: Solute carrier family 15 member 1 (Homo sapiens)
Assay: Binding affinity against membrane transport protein PEPT1 in human Caco-2 cells
Format: cell-based
Non-standard residues stand in square brackets, D forms with d. Residues, ends and D or L forms follow the SMILES beside them. *: point of attachment. NMeT = CN[C@H](C(=O)O)[C@@H](C)O; OBn = c1ccc(CO*)cc1
readout: pKi
The quantity pKi is defined as the negative base-10 logarithm of the molar concentration.

Past entries and their recorded results:
| compound | pKi |
| --- | --- |
| C[C@H](NC(=O)[C@@H](N)CC(=O)OCc1ccccc1)C(=O)O (H-Asp(OBn)-Ala-OH) | 4.05 |
| N[C@@H](Cc1ccc(O)cc1)C(=O)NCC(=O)NCC(=O)O (H-Tyr-Gly-Gly-OH) | 3.46 |
| C[C@H](NC(=O)[C@@H](N)CCCCN)C(N)=O (H-Lys-Ala-NH2) | 2.19 |
| C[C@H](NC(=O)[C@@H](N)Cc1c[nH]c2ccccc12)C(=O)O (H-Trp-Ala-OH) | 3.80 |
| C[C@@H](N)C(=O)N1CCC[C@H]1C(=O)O | 2.30 |
| CC(C)C[C@H](NC(=O)[C@H](Cc1ccccc1)NC(=O)[C@H](C)N)C(=O)O (H-Ala-Phe-Leu-OH) | 4.00 |

Lookup: GET /values?readout=pKi&item= C[C@H](NC(=O)[C@@H](N)CCCCN)C(=O)O (H-Lys-Ala-OH)
Found: 3.47

Lookup: Fill blank: measured pKi of the compound CC(C)C[C@H](NC(=O)[C@H]([C@@H](C)O)N(C)C(=O)[C@@H](N)CC(C)C)C(=O)O (H-Leu-[NMeT]-Leu-OH) is ____.
Found: 3.96

Lookup: // query pKi value for entry CSCC[C@H](NC(=O)[C@H](CCSC)NC(=O)[C@@H](N)CCSC)C(=O)O (stereo in doubt; 119)
Found: 3.28

Lookup: Using the record for CC(C)C[C@H](N)C(=O)N1CCC[C@H]1C(=O)O (H-Leu-Pro-OH) , report its pKi.
Found: 3.74

Lookup: I'd like to know its pKi. The compound in question is CC[C@H](C)[C@H](NC(=O)[C@@H]1CCCN1C(=O)[C@@H](N)Cc1ccc(O)cc1)C(=O)O (H-Tyr-Pro-Ile-OH)
Found: 3.60

* * *

List of Ki values.
Molecular target: Solute carrier family 15 member 1 (Homo sapiens)
Experiment: Binding affinity against membrane transport protein PEPT1 in human Caco-2 cells
Type: cell-based
Residues, ends and D or L forms follow the SMILES beside them.
Express it in µM; write the number only.

The examples below pair each entry with its known result.
| molecule | tested.system | reported.measurement |
| --- | --- | --- |
| CC(C)C[C@H](N)C(=O)N[C@@H](CCCN=C(N)N)C(=O)N1CCC[C@H]1C(=O)O (H-Leu-Arg-Pro-OH) | Solute carrier family 15 member 1 (Homo sapiens) | 300 |
| C[C@@H](O)[C@H](N)C(=O)N[C@@H](CCCCN)C(=O)N[C@@H](Cc1ccc(O)cc1)C(=O)O (H-Thr-Lys-Tyr-OH) | Solute carrier family 15 member 1 (Homo sapiens) | 1100 |
| CC[C@H](C)[C@H](N)C(=O)N[C@@H](Cc1ccc(O)cc1)C(=O)O (H-Ile-Tyr-OH) | Solute carrier family 15 member 1 (Homo sapiens) | 120 |

Lookup: Form field: reported Ki of N[C@@H](Cc1ccc(O)cc1)C(=O)N[C@@H](Cc1ccccc1)C(=O)O (H-Tyr-Phe-OH)
Found: 140
